Recorded IC50 by entry
tested_system: human PCSK9 (Homo sapiens, UniProt Q8NBP7)
Sequence (Q8NBP7 153-692): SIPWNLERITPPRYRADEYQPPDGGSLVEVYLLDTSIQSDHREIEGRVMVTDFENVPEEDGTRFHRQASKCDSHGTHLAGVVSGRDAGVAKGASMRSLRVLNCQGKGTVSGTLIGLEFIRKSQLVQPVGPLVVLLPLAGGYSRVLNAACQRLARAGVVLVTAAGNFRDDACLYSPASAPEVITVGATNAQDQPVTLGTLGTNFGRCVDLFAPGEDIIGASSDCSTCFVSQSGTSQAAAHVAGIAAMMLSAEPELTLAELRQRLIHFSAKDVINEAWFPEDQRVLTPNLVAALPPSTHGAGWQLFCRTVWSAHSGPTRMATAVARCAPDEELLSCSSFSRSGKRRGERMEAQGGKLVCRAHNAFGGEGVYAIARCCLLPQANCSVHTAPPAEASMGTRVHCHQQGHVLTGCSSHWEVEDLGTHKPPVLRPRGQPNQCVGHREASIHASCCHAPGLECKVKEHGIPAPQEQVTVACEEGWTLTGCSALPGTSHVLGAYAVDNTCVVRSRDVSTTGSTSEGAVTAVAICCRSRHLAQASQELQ
Sequence (Q8NBP7 31-152 partner limits assumed): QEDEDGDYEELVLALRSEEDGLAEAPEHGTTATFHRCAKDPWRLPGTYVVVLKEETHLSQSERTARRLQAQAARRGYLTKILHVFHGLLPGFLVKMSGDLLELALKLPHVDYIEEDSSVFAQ
method: PCSK9 ligand binding TR-FRET assay (interference with binding of human PCSK9 to human LDLR)
measurement_conditions: TR-FRET; human PCSK9 Alexa Fluor 647 / human LDLR extracellular domain-Europium Kryptate; read-out: PCSK9 FRET Assay IC50
measurement_type: IC50 (nM)

- compound: "COC[C@@H]1NC(=O)[C@H](C)N(Cc2ccc(Cl)cc2Oc2ccc(-c3cnc(CN(C)C)n3C)cc2)C(=O)CCC(=O)N(C)[C@@H](C)CNC(=O)C[C@H](Cc2ccc(Cl)cc2)N(C)C1=O [Compound 195]"
  value_reported: 73.4
- compound: "C[C@H]1CNC(=O)C[C@H](Cc2ccc(Cl)cc2)N(C)C(=O)[C@H](CCF)NC(=O)[C@H](C)N(Cc2ccc(Cl)cc2Oc2ccc(-c3cnc(CN4CCCC4)n3C)cc2)C(=O)C[C@@H](Cc2ccccc2)C(=O)N1C [Compound 257]"
  value_reported: 21.3
- compound: "COC[C@@H]1NC(=O)[C@H](CC(=O)N2CC(C)(O)C2)N(Cc2ccc(Cl)cc2Oc2ccc(-c3cnc(CN(C)C)n3C)cc2)C(=O)C[C@@H](Cc2ccccc2)C(=O)N(C)C2CCCCC2NC(=O)C[C@H](Cc2ccc(Cl)cc2)N(C)C1=O (stereo in doubt) [Compound 52]"
  value_reported: 1.5
- compound: "COC[C@@H]1NC(=O)[C@H](C)N(Cc2ccc(Cl)cc2Oc2ccc(-c3cnc(CN(C)C)n3C)cc2)C(=O)C[C@@H](Cc2ccc(F)cn2)C(=O)N(C)[C@@H](C)CNC(=O)C[C@H](Cc2ccc(Cl)cc2)N(C)C1=O [Compound 45]"
  value_reported: 2.2
